Hello, the source for this data is patent US20040198752A1, in case you need it.

assay: 51Cr-release cytotoxicity assay; type: cell-based, human; details: human, human epidermal keratinocytes; KBM + Ca2+; read-out: Cytotoxicity (ID50)
measuredParameter: IC50 at 18 h

Incoming: Entry C=CC(=O)Nc1cc2c(Nc3cccc(Br)c3)ncnc2cc1OCCCN1CCOCC1 [PD 169540] needs its IC50 at 18 h filled in; supply it.
Outgoing: > 1 µM

====

Tested on: human epidermal keratinocytes
Test: 51Cr-release cytotoxicity assay
Type: cell-based
Conditions: +EGF; read-out: Cytotoxicity (ID50)
Method: A ^51Cr-release assay was used to measure cytotoxic effects of the irreversible c-erbB-RTK antagonist. For this assay, keratinocytes were initially plated at 2×10^4 cells per well of a 24-well dish in growth medium (KGM) and treated with 1 μCi per well of ^51Cr. […] At the end of the incubation period, the percentage of Incorporated ^51Cr that was released into the culture medium was determined.
pIC50: −log10 of the molar value.
measuredParameter: pIC50

Incoming: Lab note: record pIC50 of C=CC(=O)Nc1cc2c(Nc3cccc(Br)c3)ncnc2cc1OCCCN1CCOCC1 tested on human epidermal keratinocytes.
Outgoing: < 6.00
